test system: P. aeruginosa; assay: Checkerboard synergy assay (FICI) with antibiotics against P. aeruginosa; format: cell-based, Pseudomonas aeruginosa; conditions: P. aeruginosa strain AR-769, in combination with GN370
Quick list: Antibiotic FIC per entry.
Lab note: record the figure alone, no unit after it.

Check out these entries, answers already filled in.
>  <compound>
NC[C@H]1O[C@H](O[C@H]2[C@H](O)[C@@H](O[C@H]3O[C@H](CO)[C@@H](O)[C@H](N)[C@H]3O)[C@H](N)C[C@@H]2N)[C@H](N)C[C@@H]1O [tobramycin, reference compound]

>  <Antibiotic FIC>
0.125

$$$$
>  <compound>
O=C(O)c1cn(C2CC2)c2cc(N3CCNCC3)c(F)cc2c1=O [ciprofloxacin, reference compound]

>  <Antibiotic FIC>
0.25

$$$$
>  <compound>
NCC[C@H](O)C(=O)N[C@@H]1C[C@H](N)[C@@H](O[C@H]2O[C@H](CN)[C@@H](O)[C@H](O)[C@H]2O)[C@H](O)[C@H]1O[C@H]1O[C@H](CO)[C@@H](O)[C@H](N)[C@H]1O [amikacin, reference compound]

>  <Antibiotic FIC>
0.25

$$$$

Sample C[C@@H](O)[C@H]1C(=O)N2C(C(=O)O)=C(S[C@@H]3CN[C@H](C(=O)N(C)C)C3)[C@H](C)[C@H]12 [meropenem, reference compound] ; Antibiotic FIC observed: 0.125

Sample CC(C)(O/N=C(\C(=O)N[C@@H]1C(=O)N2C(C(=O)[O-])=C(C[n+]3ccccc3)CS[C@H]12)c1csc(N)n1)C(=O)O ; Antibiotic FIC observed: 1
